Data provenance: patent US8669271B2

Measured log10 of EC50, listed per entry.
target: human GPR119 (Homo sapiens); construct: expression vector for human GPR119 cDNA (Acc. No. NP_848566); experiment: AlphaScreen cAMP assay in Min-6/hGPR119 cells (activation of GPR119, intracellular cAMP); conditions: MIN6 cells stably transfected with human GPR119; cAMP by AlphaScreen after 45 minutes incubation at room temperature
Sequence (Q8TDV5 whole entry): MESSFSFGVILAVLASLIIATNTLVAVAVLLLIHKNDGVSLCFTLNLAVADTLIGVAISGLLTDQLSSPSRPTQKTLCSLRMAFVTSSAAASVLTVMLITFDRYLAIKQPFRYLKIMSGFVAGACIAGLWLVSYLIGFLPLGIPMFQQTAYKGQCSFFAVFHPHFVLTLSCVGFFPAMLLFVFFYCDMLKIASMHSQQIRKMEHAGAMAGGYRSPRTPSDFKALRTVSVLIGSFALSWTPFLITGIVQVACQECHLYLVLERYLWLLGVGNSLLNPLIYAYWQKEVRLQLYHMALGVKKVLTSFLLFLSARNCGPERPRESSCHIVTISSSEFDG
Experimental Readout: log10 of EC50 (log10 of the value in nM)

Compound: CC(C)(C)OC(=O)N1CCC(C2(C)Cc3cc(-c4ccc(CS(C)(=O)=O)cc4)ncc3O2)CC1 (stereo not shown)
Value Reported: 1.38

Compound: CC(C)(C)OC(=O)N1CCC(C2Cc3cc(-c4ccncc4C#N)ccc3O2)CC1 (stereo not shown)
Value Reported: 2.43

Compound: CC(C)(C)OC(=O)N1CCC(C2(C)Cc3cc(N4CCN(S(C)(=O)=O)CC4)ncc3O2)CC1 (stereo not shown)
Value Reported: 1.60

Compound: CNC(=O)c1ccc(-c2cc3c(cn2)OC(C2CCN(C(=O)OC(C)(C)C)CC2)C3)c(F)c1 (stereo not shown)
Value Reported: 1.38

Compound: CC(C)(C)OC(=O)N1CCC(C2Cc3cc(-c4cccnc4)ncc3O2)CC1 (stereo not shown)
Value Reported: 2.61

Compound: CCS(=O)(=O)N1CCN(c2cc3c(cn2)OC(C2CCN(C(=O)OC(C)(C)C)CC2)C3)CC1 (stereo not shown)
Value Reported: 1.18

Compound: CC(C)(C)OC(=O)N1CCC(C2Cc3cc(-c4ccc(CS(C)(=O)=O)cc4)ncc3O2)CC1 (stereo not shown)
Value Reported: 1.34
